These entries and their values trace back to paper PMC5540273.

Observed pKd values for PDGFRB are listed in what follows.
// pKd here means minus log10 of the molar concentration (mol/L)

Solved entries (count: 5):
CC(C)(C)c1ccc(C(=O)Nc2cn3cc(-c4ccccc4)ccc3n2)cc1: 5.43
O=C(Nc1n[nH]c2nc(-c3ccccc3)c(Cl)cc12)C1CC1: 6.77
COc1ccc(-n2cnc3c(N)ncnc32)cc1: 6.70
O=C(Nc1n[nH]c2nc(-c3ccccc3)c(Br)cc12)C1CC1: 6.64
Cl.NS(=O)(=O)c1cccc(Nc2cc(-c3ccc(F)cc3)n[nH]2)c1: 6.68

Next up:
// returns pKd for "COc1cc2nccc(Nc3ccc(OCc4ccc(NC(C)=O)cc4)cc3)c2cc1OC.Cl" with PDGFRB; value = 6.72

====

Known %Inh of a selection of compounds
System: MAP3K2
Conditions: concentration: 1 μM, replicates: in singlicate; n = 1
Please state the figure in %; there is no need to write the unit.

The compound listed as OCCCNc1nccc(-c2c(-c3cccc(C(F)(F)F)c3)nn3cc(C(F)(F)F)ccc23)n1 [GW630813] shows %Inh equal to 0

The compound listed as "COc1cc(OC)cc(-c2cc3cnc(N)nc3nc2NC(=O)NC(C)(C)C)c1" shows %Inh equal to 0

The compound listed as O=C(NCc1cccs1)c1cc(C(=O)c2c(Cl)cccc2Cl)c[nH]1 [GW823670] shows %Inh equal to 0

The compound listed as COc1cc2ncn(-c3cc(OCc4ccncc4Br)c(C(N)=O)s3)c2cc1OC [GW854278] shows %Inh equal to 20

====

Test system: PRKCI
Conditions: concentration: 1 μM, replicates: in singlicate; n = 1
ATTRIBUTE_MEASURED: %Inh (%)
Please state the figure in %; there is no need to write the unit.

Solved entries (count: 4):
Cc1nn2c(=O)cc(N3CCOCC3)nc2n1Cc1cccc(Cl)c1Cl: 5
CC(C)(C)c1ccc(C(=O)Nc2cn3cc(-c4ccccc4)ccc3n2)cc1: 10
O=C(Nc1n[nH]c2nc(-c3ccccc3)c(Br)cc12)C1CC1: 26
COc1cccc(-n2cnc3c(N)ncnc32)c1: 25

The compound listed as "O=c1cc(N2CCOCC2)nc2n(Cc3ccc(F)c(Cl)c3)ccn12" shows %Inh equal to 0

====

System: TRPM6
Conditions: concentration: 1 μM, replicates: in singlicate; n = 1
ATTRIBUTE_MEASURED: %Inh (%)
Please state the figure in %; there is no need to write the unit.

CCc1ccc(-c2ccc3c(c2)-c2nn(C)cc2S(=O)(=O)N3C)cc1: 0
Cl.NS(=O)(=O)c1cccc(Nc2cc(-c3ccc(F)cc3)n[nH]2)c1 [GW824645]: 0
COc1cccc(C2=C(Nc3cccc(C(=O)O)c3)C(=O)NC2=O)c1 [SB-390770]: 15
O=C(NCCNc1ccnc(Nc2ccc(F)cc2)n1)Nc1ccc2c(c1)OCO2 [GSK1379882]: 26

// returns %Inh for C[C@@H]1CC[C@H](C(=O)NC2CCCCC2)CN1c1cc(-c2ccc3c(N)n[nH]c3c2)nc(N)n1 [GSK2291363] with TRPM6; value = 16

====

System: DAPK3
Conditions: concentration: 1 μM, replicates: in singlicate; n = 1
Please respond with YES when measured %Inh is strictly beneath 9%, and with NO in all other cases.

Consider the worked cases shown below.
O=C(Nc1n[nH]c2cc(-c3ccccc3F)ccc12)C1CC1: YES
Cc1cccc(-c2cc(-c3c[nH]nc3-c3ccccn3)ccn2)c1: NO
Fc1cccc(CSc2nnc(-c3ccc4c(c3)CCO4)o2)c1: YES
O=C(Nc1ccc2c(c1)OCO2)NC1CCN(c2ccnc(NCc3ccc(F)cc3)n2)CC1: YES
Cc1nn2c(=O)cc(N3CCOCC3)nc2n1Cc1cccc(Cl)c1Cl: NO

Regarding "Cc1ccc(-c2ccc3c(ccc4sc5c(c43)NC[C@@H](C)N=C5N(C)C)n2)cn1" , kindly confirm whether its %Inh is beneath 9%.
YES

Regarding "Cl.c1ccc(Cn2cnc3cc(Nc4ncnc5ccccc45)ccc32)cc1" , kindly confirm whether its %Inh is beneath 9%.
NO

Regarding "CCC(=O)c1c(-c2ccccc2)c2cc(Cl)ccc2c(=O)n1Cc1ccc(C(=O)O)cc1" , kindly confirm whether its %Inh is beneath 9%.
YES

====

Known %Inh of a selection of compounds
Test system: PFTK1
Construct: gene CDK14
Settings: concentration: 1 μM, replicates: in singlicate; n = 1
Please state the figure in %; there is no need to write the unit.

Solved entries (count: 3):
COc1cc(OC)cc(-c2cc3cnc(N)nc3nc2NC(=O)NC(C)(C)C)c1: 0
COc1ccc(CNC(=O)NC2CCN(c3ccnc(Nc4ccc(F)cc4)n3)C2)cc1 (stereo not shown): 1
COC(=O)c1c(-c2ccccc2)c2cc(Br)ccc2c(=O)n1Cc1ccc(NC(=O)CCC(=O)O)cc1: 0

// returns %Inh for "Nc1n[nH]c2nnc(-c3ccccc3)c(-c3ccccc3)c12" with PFTK1; value = 19

====

Tested on: GRK3
Construct: gene ADRBK2
Settings: concentration: 1 μM, replicates: in singlicate; n = 1
Cut-off 40% on %Inh, inclusive. At or above means 1 (yes); below means 0 (no).

Consider the worked cases shown below.
Nc1nccc2scc(-c3ccc4c(c3)CCN4C(=O)Cc3ccccc3)c12: 1 (yes)
COc1ccc(CNC(=O)NC2CCN(c3ccnc(Nc4ccc(F)cc4)n3)C2)cc1 (stereo not drawn): 1 (yes)
COc1ccc(Nc2nccc(N3CCC(NS(=O)(=O)c4ccc(NC(C)=O)cc4)C3)n2)cc1 (stereo not drawn): 0 (no)
COc1ccc(-n2cnc3c(N)ncnc32)cc1: 0 (no)
O=C(NCCNc1ccnc(Nc2ccc(F)cc2)n1)Nc1ccc2c(c1)OCO2: 0 (no)

Has "O=C1NC(=O)C(c2ccccc2)=C1Nc1cccc(O)c1" a recorded %Inh greater than or equal to 40%?
0 (no)

Has "COc1cc2ncn(-c3cc(OCc4ccncc4)c(C(N)=O)s3)c2cc1OC" a recorded %Inh greater than or equal to 40%?
0 (no)

Has "Cl.c1ccc(Cn2cnc3cc(Nc4ncnc5ccccc45)ccc32)cc1" a recorded %Inh greater than or equal to 40%?
1 (yes)

Has "OCCCNc1nccc(-c2c(-c3cccc(C(F)(F)F)c3)nn3cc(C(F)(F)F)ccc23)n1" a recorded %Inh greater than or equal to 40%?
0 (no)

====

Known %Inh of a selection of compounds
Tested on: LRRK2
Details: concentration: 1 μM, replicates: in singlicate; n = 1
Please state the figure in %; there is no need to write the unit.

COc1ccc(-c2cc3c(C)nc(N)nc3n([C@H]3CC[C@H](O)CC3)c2=O)cn1: 0

The compound listed as "Cc1cc(Nc2nc(-c3cccc(C)n3)nc3ccccc23)ccn1" shows %Inh equal to 0

The compound listed as "O=C(Nc1n[nH]c2nc(-c3ccccc3)c(Br)cc12)C1CC1" shows %Inh equal to 29

====

System: JAK2(JH1domain-catalytic)
Conditions: concentration: 1 μM, replicates: in singlicate; n = 1
We'd kindly ask you to apply these %Inh classes: low group = under 10%, middle group = from 10% up to 30%, high group = 30% and over

O=C(Nc1n[nH]c2nc(-c3ccccc3)c(Br)cc12)C1CC1: middle group
O=C1NC(=O)C(c2ccccc2)=C1Nc1cccc(O)c1: middle group
COc1cc(Nc2nccc(N3CCC(NC(=O)C(C)c4ccc(Cl)cc4)C3)n2)cc(OC)c1OC (stereo not drawn): high group
COc1cc(Nc2nccc(N3CCC(NC(=O)C4COc5ccccc5O4)C3)n2)cc(OC)c1OC (stereo not drawn): high group

Would you kindly look at the next entry?
Sort into band: "COc1ccc(-n2cnc3c(N)ncnc32)cc1"
high group

====

Known %Inh of a selection of compounds
Tested on: MST3
Construct: gene STK24
Conditions: concentration: 1 μM, replicates: in singlicate; n = 1
Please state the figure in %; there is no need to write the unit.

The compound listed as "Cc1c(Cn2c(C)nn3c(=O)cc(N4CCO[C@H](C)C4)nc23)cccc1C(F)(F)F" shows %Inh equal to 0

The compound listed as "Nc1nccc2scc(-c3ccc4c(c3)CCN4C(=O)Cc3ccccc3)c12" shows %Inh equal to 1

The compound listed as "O=c1cc(N2CCOCC2)nc2n(Cc3ccc(F)c(Cl)c3)ccn12" shows %Inh equal to 0

The compound listed as "Cc1nnc(-c2ccc(C)c(-c3ccc(C(=O)O)cc3)c2)o1" shows %Inh equal to 0

The compound listed as "COc1cc2nccc(Nc3ccc(OCc4ccc(NC(C)=O)cc4)cc3)c2cc1OC.Cl" shows %Inh equal to 0

The compound listed as "COc1cc2ncn(-c3cc(OCc4ccncc4Br)c(C(N)=O)s3)c2cc1OC" shows %Inh equal to 34

The compound listed as "Cl.NS(=O)(=O)c1cccc(Nc2cc(-c3ccc(F)cc3)n[nH]2)c1" shows %Inh equal to 0

The compound listed as "COc1ccc(-n2cnc3c(N)ncnc32)cc1" shows %Inh equal to 6

The compound listed as "CCS(=O)(=O)c1ccc(OC)c(Nc2ncc(-c3ccc(F)cc3)o2)c1.Cl" shows %Inh equal to 0
